Reference for the values: patent US12421249B2

# Assayed target: APOL1 (Homo sapiens, UniProt O14791)
# Sequence (O14791 whole entry S342G/I384M, form open): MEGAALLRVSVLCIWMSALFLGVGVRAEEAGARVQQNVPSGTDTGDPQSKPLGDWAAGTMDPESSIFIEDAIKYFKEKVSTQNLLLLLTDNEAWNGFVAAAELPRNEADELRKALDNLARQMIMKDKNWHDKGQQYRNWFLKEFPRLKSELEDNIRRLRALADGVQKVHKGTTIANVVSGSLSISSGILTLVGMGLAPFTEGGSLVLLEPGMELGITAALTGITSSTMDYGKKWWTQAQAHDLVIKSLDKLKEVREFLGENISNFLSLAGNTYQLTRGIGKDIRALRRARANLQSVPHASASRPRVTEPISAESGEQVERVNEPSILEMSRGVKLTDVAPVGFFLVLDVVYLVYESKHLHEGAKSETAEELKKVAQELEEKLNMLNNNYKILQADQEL
# Protocol: Multi-Tox Assay (MultiTox-Fluor Multiplex Cytotoxicity Assay in tet-inducible APOL1 T-REx-HEK293 cells; Table 46 does not say which APOL1 variant G0/G1/G2)
# Type: cell-based
# Condition set: APOL1 variant not given
Value type: Multi-Tox Assay Max Activity (%)

> print(dat)
                                    compound                        assayed.target  unit.text  recorded.number
 1  CCC1CC2(CC(c3cn(C)nn3)N1)OCCc1cc(Cl)sc12 (stereo not drawn)  APOL1 (Homo sapiens, UniProt O14791)          %             99.3
 2  C[C@H]1C[C@@]2(C[C@@H](c3cn(Cc4cccc5c4OCCO5)nn3)N1)OCC(F)(F)c1cc(Cl)sc12  APOL1 (Homo sapiens, UniProt O14791)          %             94.0
 3  C[C@H]1C[C@@]2(C[C@@H](c3cnc(N)nc3)N1)OCCc1cc(Cl)sc12 (racemic)  APOL1 (Homo sapiens, UniProt O14791)          %             99.7
 4  C[C@H]1C[C@@]2(C[C@@H](c3cnc(C4CC4)nc3)N1)OCCc1cc(Cl)sc12 (racemic)  APOL1 (Homo sapiens, UniProt O14791)          %             99.7
 5  C[C@H]1C[C@@]2(C[C@@H](c3cn(CC4CCOC4)nn3)N1)OC[C@@H](O)c1cc(Cl)sc12 (stereo partly drawn)  APOL1 (Homo sapiens, UniProt O14791)          %             99.0
 6  C[C@H]1C[C@@]2(C[C@@H](c3cccc(C#N)n3)N1)OCCc1cc(Cl)sc12 (racemic)  APOL1 (Homo sapiens, UniProt O14791)          %             99.3
 7  COCCOCCn1cc([C@@H]2C[C@]3(C[C@H](C)N2)OC[C@@H](O)c2cc(Cl)sc23)nn1  APOL1 (Homo sapiens, UniProt O14791)          %             98.0
 8  C[C@H]1C[C@@]2(C[C@@H](c3cn(CCC4CCCOC4)nn3)N1)OCC(F)(F)c1cc(Cl)sc12 (stereo partly drawn)  APOL1 (Homo sapiens, UniProt O14791)          %             99.0
 9  C[C@H]1C[C@@]2(C[C@@H](c3cn(Cc4ccc(C#N)nc4)nn3)N1)OCC(F)(F)c1cc(Cl)sc12  APOL1 (Homo sapiens, UniProt O14791)          %             99.0
10  CC1CC2(CC(c3ccncc3)N1)OCCc1cc(Cl)sc12 (stereo not drawn)  APOL1 (Homo sapiens, UniProt O14791)          %             99.0
11  C[C@H]1C[C@@]2(C[C@@H](c3cn(Cc4cccnn4)nn3)N1)OC[C@@H](O)c1cc(Cl)sc12  APOL1 (Homo sapiens, UniProt O14791)          %             99.0
12  COCC(O)Cn1cc([C@@H]2C[C@]3(C[C@H](C)N2)OCC(F)(F)c2cc(Cl)sc23)nn1 (stereo partly drawn)  APOL1 (Homo sapiens, UniProt O14791)          %             98.0
13  Cc1nc(Cn2cc([C@@H]3C[C@]4(C[C@H](C)N3)OC[C@@H](O)c3cc(Cl)sc34)nn2)oc1C  APOL1 (Homo sapiens, UniProt O14791)          %             99.0
14  Cc1nc([C@@H]2C[C@]3(C[C@H](C)N2)OCCc2cc(Cl)sc23)oc1C (racemic)  APOL1 (Homo sapiens, UniProt O14791)          %             98.0
15  CC1CC2(CC(c3cccc(C#N)c3)N1)OCCc1cc(Cl)sc12 (stereo not drawn)  APOL1 (Homo sapiens, UniProt O14791)          %            100.0
